# Test system: MDA-231
# Protocol Description: Growth inhibition (MTT), MDA-231
# Type: cell-based
# Condition Set: Homo sapiens, MDA-MB-231, 144 h, 6 days
Measured IC50, listed per entry.
Test Readout: IC50 (µM)

Nc1nc2c(ccn2[C@H]2C[C@H](O)[C@@H](CO)O2)c(=S)[nH]1 = 117
CSc1nc(N)nc2c1ccn2C1CC(O)C(CO)O1 (stereo not shown) = 281

----------
# Measurement Target: HeLa cell telomerase (Homo sapiens, UniProt O14746)
# Construct: endogenous in cells; host or cells: HeLa cells (human cervical tumor)
# Sequence (O14746 whole entry): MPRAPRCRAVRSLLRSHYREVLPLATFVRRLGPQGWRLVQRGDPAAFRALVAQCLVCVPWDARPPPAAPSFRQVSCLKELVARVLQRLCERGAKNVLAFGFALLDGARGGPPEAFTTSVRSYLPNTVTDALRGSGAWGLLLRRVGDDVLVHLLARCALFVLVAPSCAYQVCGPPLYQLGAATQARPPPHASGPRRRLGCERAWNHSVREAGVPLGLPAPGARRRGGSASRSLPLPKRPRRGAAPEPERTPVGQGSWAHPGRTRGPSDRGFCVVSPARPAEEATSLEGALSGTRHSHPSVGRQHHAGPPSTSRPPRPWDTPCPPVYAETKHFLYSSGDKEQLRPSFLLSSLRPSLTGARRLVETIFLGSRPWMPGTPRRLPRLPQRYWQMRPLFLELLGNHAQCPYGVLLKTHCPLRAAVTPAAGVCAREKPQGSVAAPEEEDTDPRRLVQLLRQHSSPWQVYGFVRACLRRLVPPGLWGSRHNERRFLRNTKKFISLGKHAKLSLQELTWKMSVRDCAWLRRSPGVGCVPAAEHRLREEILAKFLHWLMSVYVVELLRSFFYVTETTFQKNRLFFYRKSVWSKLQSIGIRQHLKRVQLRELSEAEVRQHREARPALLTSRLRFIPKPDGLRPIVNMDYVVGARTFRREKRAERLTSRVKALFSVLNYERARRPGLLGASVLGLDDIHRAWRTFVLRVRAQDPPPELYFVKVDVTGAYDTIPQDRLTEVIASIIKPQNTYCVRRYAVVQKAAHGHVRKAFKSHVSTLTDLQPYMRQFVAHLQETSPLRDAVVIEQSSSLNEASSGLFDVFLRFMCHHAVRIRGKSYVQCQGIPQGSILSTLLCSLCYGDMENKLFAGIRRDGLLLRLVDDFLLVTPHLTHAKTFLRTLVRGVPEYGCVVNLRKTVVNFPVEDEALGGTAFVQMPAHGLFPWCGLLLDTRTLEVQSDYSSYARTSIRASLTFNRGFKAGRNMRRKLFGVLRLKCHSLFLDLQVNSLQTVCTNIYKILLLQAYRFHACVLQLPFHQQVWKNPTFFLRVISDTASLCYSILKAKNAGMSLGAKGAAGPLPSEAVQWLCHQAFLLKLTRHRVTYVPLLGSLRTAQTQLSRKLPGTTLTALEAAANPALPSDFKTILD
# Sequence (O60832 whole entry partner): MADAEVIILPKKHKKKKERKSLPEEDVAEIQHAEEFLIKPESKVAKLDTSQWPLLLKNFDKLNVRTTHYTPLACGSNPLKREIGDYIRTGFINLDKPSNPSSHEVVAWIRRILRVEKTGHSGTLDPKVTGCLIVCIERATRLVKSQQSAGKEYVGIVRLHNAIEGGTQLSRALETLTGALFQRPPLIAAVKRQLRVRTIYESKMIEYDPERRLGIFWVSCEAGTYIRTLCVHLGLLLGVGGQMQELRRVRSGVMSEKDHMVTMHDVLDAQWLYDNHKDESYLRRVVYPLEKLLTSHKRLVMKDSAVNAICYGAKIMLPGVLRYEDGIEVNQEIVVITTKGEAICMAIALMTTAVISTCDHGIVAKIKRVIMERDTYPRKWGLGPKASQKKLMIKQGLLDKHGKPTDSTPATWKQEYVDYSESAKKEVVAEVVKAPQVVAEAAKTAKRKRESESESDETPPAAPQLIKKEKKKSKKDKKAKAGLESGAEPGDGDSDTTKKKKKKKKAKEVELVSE
# Sequence (Q9NPE3 whole entry partner): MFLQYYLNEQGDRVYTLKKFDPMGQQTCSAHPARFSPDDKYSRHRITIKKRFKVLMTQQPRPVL
# Sequence (Q9NX24 whole entry partner): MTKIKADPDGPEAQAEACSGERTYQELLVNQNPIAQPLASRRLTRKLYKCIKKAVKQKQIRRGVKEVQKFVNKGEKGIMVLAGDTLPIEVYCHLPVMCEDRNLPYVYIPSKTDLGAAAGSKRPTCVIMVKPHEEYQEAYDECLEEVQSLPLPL
# Sequence (Q9NY12 whole entry partner): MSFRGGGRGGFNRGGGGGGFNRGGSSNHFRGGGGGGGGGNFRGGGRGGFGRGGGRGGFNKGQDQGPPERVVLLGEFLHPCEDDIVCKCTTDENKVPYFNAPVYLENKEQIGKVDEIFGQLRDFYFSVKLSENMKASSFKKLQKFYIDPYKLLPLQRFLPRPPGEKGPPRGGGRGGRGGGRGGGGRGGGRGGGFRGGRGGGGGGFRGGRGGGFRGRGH
# Protocol Description: HeLa cell telomerase assay
# Assay type: biochemical
# Condition Set: HeLa cell telomerase
The following compounds are shown together with reported IC50 values.
Test Readout: IC50

Cn1c(N)nc2c(ccn2[C@H]2C[C@H](O)[C@@H](CO)O2)c1=O = 159 µM
COc1nc(N)nc2c1ccn2[C@H]1C[C@H](O)[C@@H](COP(=O)(O)OP(=O)(O)OP(=O)(O)O)O1 = 4.9 µM
Cn1c(N)nc2c(ccn2[C@H]2C[C@H](O)[C@@H](COP(=O)(O)OP(=O)(O)OP(=O)(O)O)O2)c1=O = 159 µM
COc1nc(N)nc2c1ccn2[C@H]1C[C@H](O)[C@@H](CO)O1 = 4.9 µM
